Reported values of melting point for individual entries

Below, 4 molecules whose answers are already recorded.
CC(CSS)C(=O)Nc1ncccc1C(=O)O (stereo not given) | 95 to 100 °C
CCOC(C)OC1CCC2(C)C3=C(CCC2C1(C)C)C1=CCC(C(C)CSc2ccccc2)C1(C)CC3 (stereo not given) | 101 to 107 °C
CN(C)Nc1cc(F)ccc1[N+](=O)[O-] | 67 to 71 °C
CC(C)c1nn(-c2ccccc2)c(-c2ccc(F)cc2)c1CC[C@H]1C[C@H](O)CC(=O)O1 (relative stereo) | 157 to 159 °C

Now for a further molecule.
Tell me the measured melting point of COC12CC(C3(c4cncc(Br)c4)N=NCS3)CN(C)C1Cc1cn(C)c3cccc2c13 (stereo not given) , please.
131 to 137 °C

----------
parameterMeasured: melting point

CCOc1nc(=O)n(-c2cc(C(=O)OC)c(Cl)cc2F)c(=O)n1C | 45 to 47 °C
O=c1c2c(Cl)cc(Cl)cc2n(Cc2ccccc2)c(=O)n1CCc1ccccc1 | 169 to 171 °C
CC(C)c1ccc(C2(NC(=O)c3ccccc3)C(=O)c3ccccc3C2=O)c(OC(=O)c2ccccc2)c1 | 138 to 140 °C

Tell me the measured melting point of CCCCCCCNC(=O)Nc1ccc(N2CCCCC2)cc1C(=O)NCC1CCN(C(c2ccccc2)c2ccccc2)CC1 , please.
166 to 168 °C

Tell me the measured melting point of Cn1c2nc3ccccc3nc2c2cccc(CO)c21 , please.
237 to 238 °C

Tell me the measured melting point of COc1ccc(-c2[nH]c(-c3ccc(F)cc3)cc2C(=O)N2CCOCC2)cc1OC , please.
190 °C

Tell me the measured melting point of CC1(C)CCC(C)(C)c2cc(-c3cc(-c4ccc(C(N)=O)cc4-c4ccc(O)cc4)ccc3-c3ccccc3)ccc21 , please.
231 °C

Tell me the measured melting point of COc1ccccc1CNc1ccc2cc(Nc3ncccc3C)ccc2n1 , please.
163 °C

----------
Reported values of melting point for individual entries

Below, 3 molecules whose answers are already recorded.
O=c1[nH]c2ccccc2c(=O)n1CCS | 193 to 195 °C
COC(OC)C(C)NC1=Nc2ccc(Cl)cc2C(c2ccccc2Cl)=NC1 (stereo not given) | 153 to 155 °C
COC(=O)c1cc(-c2ccncc2)sc1-c1ccncc1 | 133 to 135 °C

Tell me the measured melting point of O=C(O)C(Cc1ccc(OCCN2c3ccccc3Oc3ccccc32)cc1)C(=O)O , please.
303 to 307 °C

Tell me the measured melting point of CN(CCCC(=O)O)c1ccc(C(=O)c2ccccc2)cc1 , please.
111 to 113 °C

Tell me the measured melting point of CC(C)OC(=O)c1cn(-c2cccc(Cl)c2)cn1 , please.
109 °C

Tell me the measured melting point of COc1ccc(-n2nc(OC(C)C)cc2-c2ccc(OCCNS(C)(=O)=O)cc2)cc1 , please.
168 °C

Tell me the measured melting point of O=c1[nH]c2cc(-n3cccc3)c([N+](=O)[O-])cc2n(C2CCCCC2)c1=O , please.
197 °C

Tell me the measured melting point of Cn1c(C(F)(F)F)ccc(-c2cc(S)c(Cl)cc2F)c1=O , please.
141 to 142 °C

Tell me the measured melting point of CCOC(=O)c1c(-c2ccccc2)c2cc(Cl)ccc2[nH]c1=O , please.
223 to 224 °C
